EXPERIMENTAL SYSTEM: T1, 4H797-AA
T1 chain: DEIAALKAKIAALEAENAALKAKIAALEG
TEST NAME: two-hybrid library CCmax;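 note: natural log of median RNA to DNA barcode read ratio; higher means stronger binding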
RECORDED CONDITIONS: mean of both orientations
Record form. Attribute: interaction score. Fill in for each entry.
Please give only the number in your answer, with no unit.

Entry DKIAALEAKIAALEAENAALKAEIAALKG [4H2330-AA] , interaction score reported as -0.788

Sample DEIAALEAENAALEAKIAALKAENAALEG [4H171-AA] ; interaction score observed: -1.36

Quick note, interaction score for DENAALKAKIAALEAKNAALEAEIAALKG [4H1842-AA] landed at -1.34

Entry under test: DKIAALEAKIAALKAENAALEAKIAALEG [4H2389-AA] . Its interaction score was 1.3

Value of interaction score reported for the binder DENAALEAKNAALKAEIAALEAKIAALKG [4H1478-AA] is -1.28

The reported interaction score of the binder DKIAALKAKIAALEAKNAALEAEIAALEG [4H2865-AA] was -0.194

The reported value for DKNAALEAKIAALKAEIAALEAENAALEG [4H3395-AA] in terms of interaction score is -1.43
